FYI, the data here is from the supplement of paper PMC12042874.

Test: amyloid nucleation score (Sup35N fusion, yeast selection) (log enrichment); library NNK2; higher = more nucleation; inactive = no reads after selection;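 note: zero at mode of non-aggregating sequences after 7 days selection at 30°C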

# Sequence Record, amyloid nucleation score
rows = [
    ("PADPNCIFVIS", -1.25),
    ("NSSMTRLGNTYLYHNNLHLV", -1.25),
    ("VQVCKMICRFISLWGLLA", 0.006),
    ("CTVCITKGWLMHVWYYAYRW", 0.902),
    ("PGRRDSHVRAYQEGVVESVS", 0.051),
    ("SELRKVRCNG", 0.813),
    ("TIILMGYLFWICRQSVR", -0.449),
    ("VSHILINVSRGLRGS", -0.261),
    ("KIISNSFCSPCINSILPSKM", 6.83),
]

* * *

Assay: amyloid nucleation score (Sup35N fusion, yeast selection) (log enrichment); library NNK1; higher = more nucleation; inactive = no reads after selection
Catalogue of substances with associated amyloid nucleation score

# Substance, amyloid nucleation score
rows = [
    ("YTVTCYCGSDTWSKMLAKVF", -1.16),
    ("LIVNLDMTSVLHVSGELR", 5.22),
    ("LEQCYAAHSTYKMMPWAYKA", 0.091),
    ("PIHGISFFDAYNL", -0.128),
    ("VIDRTEGTYCREITTFHYYN", -0.378),
    ("TVASRFEFYTKDWAYRNGRL", 1.76),
    ("DFLFNGLNITRCYFA", 0.193),
    ("RLCRTVEWCGCYSIPNLQCA", 0.118),
    ("NNKSEVF", 1.46),
    ("QTNMMSTHHP", 0.39),
    ("GGSVRRDQMVYREDMQSNST", -0.746),
    ("WRSSSFSGIWYVSVGYNASL", -0.455),
    ("KFVVMGWGYLTIRVVSVTDK", 1.92),
    ("SWGMVFLNSRVPWRVMFNSC", 0.154),
    ("LLDGYSLDNIGLEVGNASSN", 0.53),
    ("PSRVKLKISKLL", -0.647),
    ("LRKALRLDVHLGTNLYLNSF", 0.542),
    ("IMAFNDRDHG", -0.093),
    ("SWTTARLNRSRSIFKNLRQE", 0.028),
    ("FQRGKLTASLSMVHSSRVCF", -1.6),
    ("GDDLQFT", 1.88),
    ("LSGMDTLGIVRCAVA", -0.325),
    ("CLDVGHIFLGKVEWTGEPW", -0.375),
    ("GRSYFVVGFLSELCEKWLTK", 0.046),
    ("RYWLYVKFGWYLTDGFYSGS", 0.665),
    ("VLFGWGCGNTFSRPSNRGQR", 0.97),
    ("FIRFLNTVGSWSLWMPYMVF", 0.851),
    ("CRLVVMVIVQLHGIDFELAL", 0.951),
    ("RYYNFFMGLTWG", -0.395),
    ("NYGAFY", -0.13),
    ("VPRLLYQFLTSHTVVDSPEV", -0.069),
    ("SWWVGTCFSGQWTVLGFP", 0.961),
    ("FRCLTVYCWF", 7.89),
    ("LQVVALW", 0.123),
]
